// provenance: paper PMC6269660

TEST_PROTOCOL: Cell viability by MTT reduction
Assay type: cell-based
CONDITION_SUMMARY: mouse, RAW 264.7 macrophages; at a concentration of 100 μM; RAW 264.7 cells; MTT reduction; mean ± SD of three independent experiments
OUTCOME_MEASURE: viability at 8 h, 100 µM (%)

MOLECULE	EXPERIMENTAL_RESULT
CC(=O)OC1C(OC2CCC34CC35CCC3(C)C(C(C)CCC(O)C(C)(C)O)CCC3(C)C5CC(OC3OC(CO)C(O)C(O)C3O)C4C2(C)C)OCC(O)C1O (stereo not shown) [Compound 1]	93.2
CC(=O)OC1C(OC2CCC34CC35CCC3(C)C(C(C)CCC(O)C(C)(C)O)C(O)CC3(C)C5CC(OC3OC(CO)C(O)C(O)C3O)C4C2(C)C)OCC(O)C1O (stereo not shown) [Compound 3, agroastragaloside II]	47.6
CC(=O)O[C@@H]1[C@@H](O)[C@H](O[C@H]2CC[C@]34C[C@]35CC[C@]3(C)[C@@H]([C@@]6(C)CC[C@@H](C(C)(C)O)O6)[C@@H](O)C[C@@]3(C)[C@@H]5C[C@H](O[C@@H]3O[C@H](CO)[C@@H](O)[C@H](O)[C@H]3O)[C@H]4C2(C)C)OC[C@H]1O [Compound 4, isoastragaloside II]	69
CC(=O)OC1C(O)COC(OC2CCC34CC35CCC3(C)C(C(C)CCC(O)C(C)(C)O)C(O)CC3(C)C5CC(OC3OC(CO)C(O)C(O)C3O)C4C2(C)C)C1OC(C)=O (stereo not shown) [Compound 2, agroastragaloside I]	54.5
